TESTED_SYSTEM: His-AKT (Full Length) (Homo sapiens (Human), UniProt P31749)
Sequence (P31749 whole entry): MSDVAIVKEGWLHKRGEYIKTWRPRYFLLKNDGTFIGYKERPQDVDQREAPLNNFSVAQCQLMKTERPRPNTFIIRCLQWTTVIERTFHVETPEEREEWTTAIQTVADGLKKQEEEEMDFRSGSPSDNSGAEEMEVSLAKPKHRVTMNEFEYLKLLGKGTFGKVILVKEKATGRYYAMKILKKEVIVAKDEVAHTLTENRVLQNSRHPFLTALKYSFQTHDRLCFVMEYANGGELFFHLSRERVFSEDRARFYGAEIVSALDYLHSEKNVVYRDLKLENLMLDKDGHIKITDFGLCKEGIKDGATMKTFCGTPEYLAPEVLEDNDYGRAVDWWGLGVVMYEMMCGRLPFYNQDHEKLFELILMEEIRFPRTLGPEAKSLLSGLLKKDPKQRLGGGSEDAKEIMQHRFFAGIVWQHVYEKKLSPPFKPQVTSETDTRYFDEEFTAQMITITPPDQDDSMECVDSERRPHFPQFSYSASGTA
ASSAY_EXPLANATION: AKT enzyme assay
Assay type: biochemical
CONDITION_DETAILS: read-out: IC50 AKT
Rule: IC50 below 20 nM gives class 1. Equal to or above 20 nM gives class 0.

CCc1c(N)ncnc1N1CCC(c2nc(-c3ccnc(OC)c3)cn2CCN2CCC2)CC1; class 0

Consider `Cn1cc(-c2ccc(F)c(C(F)(F)F)c2)nc1C1CCN(c2ncnc(N)c2Br)CC1` . Does its IC50 lie strictly below 20 nM?
class 0

Consider `CCC(C)(C)NCCn1cc(-c2ccc(F)c(C(F)(F)F)c2)nc1C1CCN(c2ncnc(N)c2C#N)CC1` . Does its IC50 lie strictly below 20 nM?
class 1

Consider `CN(C)CCn1cc(-c2ccc(F)c(C(F)(F)F)c2)nc1C1CCN(c2ncnc(N)c2-c2ccncc2)CC1` . Does its IC50 lie strictly below 20 nM?
class 0

Consider `CCc1c(N)ncnc1N1CCC(c2nc(-c3ccc(Cl)cc3)cn2CCN2CCCC2)CC1` . Does its IC50 lie strictly below 20 nM?
class 0

Consider `N#Cc1c(N)ncnc1N1CCC(c2nc(-c3ccnc(C(F)(F)F)c3)cn2CCN2CCC2)CC1` . Does its IC50 lie strictly below 20 nM?
class 1

Consider `N#Cc1c(N)ncnc1N1CCC(c2nc(-c3ccccc3)cn2CCN2CCC2)CC1` . Does its IC50 lie strictly below 20 nM?
class 0

Consider `N#Cc1c(N)ncnc1N1CCC(c2nc(-c3ccc(F)c(Cl)c3)cn2CCN2CCC2)CC1` . Does its IC50 lie strictly below 20 nM?
class 1

Consider `Nc1ncnc(N2CCC(c3nc(-c4ccc(F)c(C(F)(F)F)c4)cn3CCN3CCC3)CC2)c1OCC(F)(F)F` . Does its IC50 lie strictly below 20 nM?
class 1

Consider `C=C(C)c1c(N)ncnc1N1CCC(c2nc(-c3ccc(F)c(C(F)(F)F)c3)cn2CCN(C)C)CC1` . Does its IC50 lie strictly below 20 nM?
class 1

Consider `CCc1c(N)ncnc1N1CCC(c2nc(-c3ccc(F)cc3)cn2CCN2CC(F)C2)CC1` . Does its IC50 lie strictly below 20 nM?
class 0

Consider `CCc1c(N)ncnc1N1CCC(c2nc(-c3ccc(F)c(C(F)(F)F)c3)cn2CCN2CC(F)(F)C2)CC1` . Does its IC50 lie strictly below 20 nM?
class 0

Consider `CN(C)CCn1cc(-c2ccc(F)c(C(F)(F)F)c2)nc1C1CCN(c2ncnc(N)c2-c2ccc(F)cc2)CC1` . Does its IC50 lie strictly below 20 nM?
class 0

Consider `Cc1cc(-c2cn(CC3CNC3)c(C3CCN(c4ncnc(N)c4OC(C)C)CC3)n2)ccc1F` . Does its IC50 lie strictly below 20 nM?
class 1

Consider `CC(C)N(C)CCn1cc(-c2ccc(F)c(C(F)(F)F)c2)nc1C1CCN(c2ncnc(N)c2C#N)CC1` . Does its IC50 lie strictly below 20 nM?
class 1

Consider `CCc1c(N)ncnc1N1CCC(c2nc(-c3ccc(F)c(C(F)(F)F)c3)cn2CC2CNC2)CC1` . Does its IC50 lie strictly below 20 nM?
class 1

Consider `C=Cc1c(N)ncnc1N1CCC(c2nc(-c3ccc(C(F)(F)F)cc3)cn2CCN2CCCC2)CC1` . Does its IC50 lie strictly below 20 nM?
class 0

Consider `Cc1ncc(-c2c(N)ncnc2N2CCC(c3nc(-c4ccc(F)c(C(F)(F)F)c4)cn3C)CC2)s1` . Does its IC50 lie strictly below 20 nM?
class 0

Consider `C=C(C)c1c(N)ncnc1N1CCC(c2nc(-c3ccc(F)c(C(F)(F)F)c3)cn2CCN2CCCCC2)CC1` . Does its IC50 lie strictly below 20 nM?
class 1

Consider `Nc1ncnc(N2CCC(c3nc(-c4ccc(F)c(C(F)(F)F)c4)cn3CCN3CCC3)CC2)c1[N+](=O)[O-]` . Does its IC50 lie strictly below 20 nM?
class 1

Consider `N#Cc1c(N)ncnc1N1CCC(c2nc(-c3ccc(F)c(C(F)(F)F)c3)cn2CCO)CC1` . Does its IC50 lie strictly below 20 nM?
class 0

Consider `CCN(CC)CCn1cc(-c2ccc(F)c(C)c2)nc1C1CCN(c2ncnc(N)c2C#N)CC1` . Does its IC50 lie strictly below 20 nM?
class 1

Consider `CCc1c(N)ncnc1N1CCC(c2nc(-c3ccc(F)c(Cl)c3)cn2CCN2CCCC2)CC1` . Does its IC50 lie strictly below 20 nM?
class 1

Consider `N#Cc1c(N)ncnc1N1CCC(c2nc(-c3ccnc(F)c3)cn2CCN2CCC2)CC1` . Does its IC50 lie strictly below 20 nM?
class 1

Consider `CCc1c(N)ncnc1N1CCC(c2nc(-c3ccc(F)c(C(F)(F)F)c3)cn2CCN)CC1` . Does its IC50 lie strictly below 20 nM?
class 1
